# Test system: Plasmodium berghei
# EXPERIMENTAL PROTOCOL: Screen against P. berghei liver stage (PbLuc), transformed with Luciferase, at 2uM
# Type: functional, HepG2
# TEST PARAMETERS: tested at 2 uM
Hit rate of the full screen: of about 68,000 compounds, about 2,700 (4%) showed an effect of 50% or more. The full list was thinned out, with strong results kept by preference.
Criterion: INHIBITION strictly less than -10%. Met: fulfilled. Not met: not fulfilled.

COMPOUND	CAT
Cn1cnc2c1CCN(Cc1csc(-c3ccccc3)n1)C2	not fulfilled
CC(NCc1cnc(N2CCOCC2)nc1)c1ccc(Cl)s1 (stereo unspecified)	fulfilled
Cc1cc(C)c2ncn(CCOCCO)c(=O)c2c1	not fulfilled
O=C(CC1CC1)N1CCC2(CC1)CN(c1ncccn1)CCO2	fulfilled
CC(C)OCc1ncn2c1CN(CC1CC1)CCC2	fulfilled
CC(OCC1CC1)C(=O)N1CCCN(Cc2cnn(C)c2)CC1 (stereo unspecified)	not fulfilled

----------
The reader will find reported INHIBITION values listed item by item below.
# System: Plasmodium berghei
# EXPERIMENTAL PROTOCOL: Screen against P. berghei liver stage (PbLuc), transformed with Luciferase, at 2uM
# Format: functional, HepG2
# TEST PARAMETERS: tested at 2 uM
The whole screen tested about 68,000 compounds, of which about 2,700 (4%) showed an effect of 50% or more. The sample holds strong results, similar compounds and a random draw of the others, so the mix is not that of the screen.
RECORDED ENDPOINT: INHIBITION (%)

COMPOUND	TARGET DESC	RECORDED ENDPOINT	REPORTED RESULT
Cn1cnnc1C1CCN(C(=O)CCCOc2ccccc2)CC1	Plasmodium berghei	INHIBITION	23.31
NC(=O)N1CCCC1COC(=O)c1cc(F)ccc1F (stereo unspecified)	Plasmodium berghei	INHIBITION	61.91
COc1cccc(Cl)c1C(C(=O)O)N1CCC(O)(c2cccnc2)CC1 (stereo unspecified)	Plasmodium berghei	INHIBITION	-4.09
CC(=O)N1CCC(c2nn(C)c(=O)n2-c2ccccc2)CC1	Plasmodium berghei	INHIBITION	64.06
Cc1ccc(F)cc1C(=O)OCC1CCCN1C(N)=O (stereo unspecified)	Plasmodium berghei	INHIBITION	5.48
O=c1n(Cc2ncccn2)nc(C2CCNCC2)n1-c1ccccc1	Plasmodium berghei	INHIBITION	-0.59

----------
# Tested on: Plasmodium berghei
# EXPERIMENTAL PROTOCOL: Screen against P. berghei liver stage (PbLuc), transformed with Luciferase, at 2uM
# Type: functional, HepG2
# TEST PARAMETERS: tested at 2 uM
In all, about 68,000 compounds went through this assay and about 2,700 (4%) showed an effect of 50% or more. The entries come from a sample that favours strong results as a whole.
Respond with criterion met for INHIBITION values of 20% and above, criterion not met for values below.

COMPOUND	TARGET DESC	CAT
CC(Cn1ccnc1)NC(=O)N(C)Cc1ccsc1 (stereo not given)	Plasmodium berghei	criterion met
Cc1csc([C@@H]2C[C@H]3CN(c4ncc(F)cn4)C[C@H]3O2)n1	Plasmodium berghei	criterion not met
COc1ccc(C[C@H]2CN(C(=O)c3ncccn3)CC[C@@H]2OC)cc1	Plasmodium berghei	criterion met
CCO[C@@H]1CO[C@@]2(CCCN(S(=O)(=O)c3ccccc3)C2)C1	Plasmodium berghei	criterion met
CCCOCC(=O)N1CCc2c(cccc2S(=O)(=O)N2CCOCC2)C1	Plasmodium berghei	criterion met
O=C(NC[C@]12COC[C@H]1CN(Cc1ccncc1)C2)c1ccco1	Plasmodium berghei	criterion not met
Cc1ccc(-c2ncc(C(=O)N3CCCN4CCC[C@H]4C3)c(O)n2)cc1	Plasmodium berghei	criterion met
COc1ccc(C[C@H]2CN(C(=O)c3cc(C)no3)CC[C@H]2OC)cc1	Plasmodium berghei	criterion met
CS(=O)(=O)c1ccc(C(=O)NCc2nc3cc(F)ccc3[nH]2)cc1	Plasmodium berghei	criterion met
Cc1ccc(C(=O)N2CCn3c(COCC4CC4)cnc3C2C)nc1 (stereo not given)	Plasmodium berghei	criterion not met
COc1ccc(CN2CC[C@H](O)[C@@H]2Cc2cnn(C)c2)cc1	Plasmodium berghei	criterion not met
O=C(CCc1cc2n(n1)CCN(CCCn1cccc1)C2)N1CCCC1	Plasmodium berghei	criterion not met
CCN1C[C@H]2CCN(C(C)=O)CC[C@H]2S1(=O)=O	Plasmodium berghei	criterion met
Cc1ccc(-c2ncc(C(=O)N3CCCC(CCN)C3)c(O)n2)cc1 (stereo not given)	Plasmodium berghei	criterion met
Cc1nnsc1C(=O)NCc1nn(C)c2c1COCC2	Plasmodium berghei	criterion not met
COCCO[C@H]1CCN(C(=O)c2cc(C)on2)[C@H]1Cc1ccccc1	Plasmodium berghei	criterion met
CC1CCN(CCCNC(=O)C2CCCCC2)CC1	Plasmodium berghei	criterion not met
c1cc(CN2Cc3nccn3CC(Cn3cncn3)C2)ccn1 (stereo not given)	Plasmodium berghei	criterion not met
COCCOCC(=O)NCCCOC1CCCc2ccccc21 (stereo not given)	Plasmodium berghei	criterion not met
CCN(Cc1ccncc1)C(=O)c1cn(CCCc2ccccc2)nn1	Plasmodium berghei	criterion met
COc1ccc(C[C@H]2CN(C(=O)c3ccn(C)n3)CC[C@H]2OC)cc1	Plasmodium berghei	criterion not met
CN(CCc1ccccn1)C(=O)c1cnn(-c2ccccc2F)c1N	Plasmodium berghei	criterion not met
COc1cc(C#N)ccc1OCC(=O)NS(=O)(=O)c1ccccc1	Plasmodium berghei	criterion not met
CCn1cc(S(=O)(=O)NC2CCCN(CCCc3ccccc3)C2)cn1 (stereo not given)	Plasmodium berghei	criterion not met
CO[C@H]1CCN(C(=O)c2cc(C)on2)C[C@@H]1Cc1ccccc1	Plasmodium berghei	criterion met
Cc1n[nH]c(C2CN(CC(=O)NCCc3ccc(F)cc3)CCO2)n1 (stereo not given)	Plasmodium berghei	criterion not met
Cc1cccc(CN2C[C@@H]3COC[C@]3(CNC(=O)c3ccccc3)C2)n1	Plasmodium berghei	criterion met
Cc1nn(Cc2ccc(C(=O)NCCCN3CCOCC3)o2)c(C)c1Cl	Plasmodium berghei	criterion met
O=C(OC1CCC1)c1ncccc1OCC(F)(F)F	Plasmodium berghei	criterion met
CC(C)c1ncc2c(n1)CN(CC(=O)Nc1ccncc1)CC2	Plasmodium berghei	criterion not met
Cc1cc(C2CCCN(Cc3cccnc3)C2)n[nH]1 (stereo not given)	Plasmodium berghei	criterion met
COCCC(=O)NCCCOC1CCCc2ccccc21 (stereo not given)	Plasmodium berghei	criterion not met
Cc1cccc(CN2C[C@@H]3COC[C@]3(CNC(=O)c3ccsc3)C2)n1	Plasmodium berghei	criterion not met
Cn1c(CC2CCS(=O)(=O)C2)nnc1SCCOc1cccc(Cl)c1 (stereo not given)	Plasmodium berghei	criterion met
CCOCCC(=O)N1CCc2cccc(S(=O)(=O)N3CCOCC3)c2C1	Plasmodium berghei	criterion met
COc1cc(N2C[C@@H](C)[C@](O)(C3CC3)C2)nc(N)n1	Plasmodium berghei	criterion met
c1csc(CN2Cc3nccn3CC(Cn3cncn3)C2)c1 (stereo not given)	Plasmodium berghei	criterion met
CCCn1cc(Cl)c(C(=O)N2C[C@H]3CC(OC)C[C@H]3C2)n1 (stereo not given in full)	Plasmodium berghei	criterion not met
CNC(=O)COC1COC2(CCN(Cc3cccnc3)CC2)C1 (stereo not given)	Plasmodium berghei	criterion met
Cc1cc(C(=O)N2CC[C@@H]3CN(C)S(=O)(=O)[C@@H]3CC2)no1	Plasmodium berghei	criterion not met
COCCNC(=O)NCCCOC1CCCc2ccccc21 (stereo not given)	Plasmodium berghei	criterion met
Cc1cc(C(=O)N2CC[C@@H]3CN(CCC(C)C)S(=O)(=O)[C@@H]3CC2)no1	Plasmodium berghei	criterion met
Cn1cc(CN2C[C@@H]3COC[C@]3(CNC(=O)c3ccccc3)C2)cn1	Plasmodium berghei	criterion met
Cc1cccc(CN2C[C@@H]3COC[C@]3(CNC(=O)C3CC3)C2)c1	Plasmodium berghei	criterion not met
